Biological target: integrin α 4β7 (Homo sapiens, UniProt P13612+P26010)
Construct: lymphoma cell strain RPMI-8866 of human B cells, known to express integrin α 4β7; endogenous in cells
Assay: VCAM antagonistic activity (VCAM-1/α4β7 binding assay), RPMI-8866 cells binding to VCAM-1
Conditions: RPMI-8866 cells (human B cells) binding to recombinant human VCAM-1; binding buffer containing 4 mM of MnCl2; room temperature, 30 minutes; read-out: VCAM-1/α 4 β 7 linking antagonization activity IC50
recorded-metric: pIC50
pIC50 is a log-scale quantity: -log10 of the concentration expressed in molar.

Worked cases, answers included:
compound	target-desc	pIC50
CC(C)NCCN(c1ccc([N+](=O)[O-])c(C(=O)NC(Cc2ccc(OCc3c(Cl)cccc3Cl)cc2)C(=O)O)c1)C(C)C (stereo not drawn)	integrin α 4β7 (Homo sapiens, UniProt P13612+P26010)	7.00
CSc1ncc(Cl)c(C(=O)Nc2ccc(C[C@H](NC(=O)c3cc(N(CCNC(C)C)C(C)C)ccc3[N+](=O)[O-])C(=O)O)cc2)n1	integrin α 4β7 (Homo sapiens, UniProt P13612+P26010)	8.96
O=C(NC(Cc1ccc(OCc2c(Cl)cccc2Cl)cc1)C(=O)O)c1ccc(N2CCNCC2)c([N+](=O)[O-])c1 (stereo not drawn)	integrin α 4β7 (Homo sapiens, UniProt P13612+P26010)	6.12
CN(CCO)c1ccc([N+](=O)[O-])c(C(=O)NC(Cc2ccc(OCc3c(Cl)cccc3Cl)cc2)C(=O)O)c1 (stereo not drawn)	integrin α 4β7 (Homo sapiens, UniProt P13612+P26010)	7.18
CCCNCCCCN(CCC)c1ccc([N+](=O)[O-])c(C(=O)NC(Cc2ccc(OCc3c(Cl)cccc3Cl)cc2)C(=O)O)c1 (stereo not drawn)	integrin α 4β7 (Homo sapiens, UniProt P13612+P26010)	6.92

Query compound follows.
Data request: Checklist item: pIC50 tested on integrin α 4β7 (Homo sapiens, UniProt P13612+P26010), entry `CSc1ncc(Cl)c(C(=O)Nc2ccc(C[C@H](NC(=O)c3cc(N(CCN(C(C)=O)C(C)C)C(C)C)ccc3[N+](=O)[O-])C(=O)O)cc2)n1` , value?
Data returned: 8.28

###

Target: integrin α 4β1 (Homo sapiens, UniProt P05556+P13612)
Construct: cell strain Jurkat (ATCC TIB-152) of human T cells, known to express integrin α 4β1
Test: VCAM antagonistic activity (VCAM-1/α4β1 binding assay), Jurkat cells binding to VCAM-1
Conditions: Jurkat cells (human T cells) binding to recombinant human VCAM-1; room temperature, 30 minutes; read-out: VCAM-1/α 4 β 1 linking antagonization activity IC50
Recorded IC50 for the following molecules
The figure you give is taken to be in µM; do not add the unit.

molecule	IC50 (µM)
CC(C)NCCN(c1ccc([N+](=O)[O-])c(C(=O)NC(Cc2ccc(OCc3c(Cl)cccc3Cl)cc2)C(=O)O)c1)C(C)C (stereo not shown) [Example 2]	4
O=C(NC(Cc1ccc(OCc2c(Cl)cccc2Cl)cc1)C(=O)O)c1cc(N2CCC(O)CC2)ccc1[N+](=O)[O-] (stereo not shown) [Example 22]	4.6
O=C(NC(Cc1ccc(OCc2c(Cl)cccc2Cl)cc1)C(=O)O)c1cc(N2CCOCC2)ccc1[N+](=O)[O-] (stereo not shown) [Example 18]	2.2
CSc1ncc(Cl)c(C(=O)Nc2ccc(C[C@H](NC(=O)c3cc(N(CCN(C(C)=O)C(C)C)C(C)C)ccc3[N+](=O)[O-])C(=O)O)cc2)n1 [Example 30]	0.087

Data request: What does the record list as IC50 for O=C(NC(Cc1ccc(OCc2c(Cl)cccc2Cl)cc1)C(=O)O)c1cc(N2CCNCC2)ccc1[N+](=O)[O-] (stereo not shown) [Example 8] ?
Data returned: 4

Data request: Then CC(C)NCCCN(c1ccc([N+](=O)[O-])c(C(=O)NC(Cc2ccc(OCc3c(Cl)cccc3Cl)cc2)C(=O)O)c1)C(C)C (stereo not shown) [Example 3] ?
Data returned: 5.5

Data request: Then CSc1ncc(Cl)c(C(=O)Nc2ccc(CC(NC(=O)c3cc(N(CCNC(C)C)C(C)C)ccc3[N+](=O)[O-])C(=O)O)cc2)n1 (stereo not shown) [Example 27] ?
Data returned: 0.027

Data request: Then CCCN(C)c1ccc([N+](=O)[O-])c(C(=O)NC(Cc2ccc(OCc3c(Cl)cccc3Cl)cc2)C(=O)O)c1 (stereo not shown) [Example 12] ?
Data returned: 4.1

Data request: Then CC1CN(c2ccc([N+](=O)[O-])c(C(=O)NC(Cc3ccc(OCc4c(Cl)cccc4Cl)cc3)C(=O)O)c2)C(C)CN1 (stereo not shown) [Example 5] ?
Data returned: 4.9

Data request: Then O=C1CCN(c2ccc([N+](=O)[O-])c(C(=O)NC(Cc3ccc(OCc4c(Cl)cccc4Cl)cc3)C(=O)O)c2)CC1 (stereo not shown) [Example 21] ?
Data returned: 3.3

###

Molecular target: integrin α 4β7 (Homo sapiens, UniProt P13612+P26010)
Construct: lymphoma cell strain RPMI-8866 of human B cells, known to express integrin α 4β7; endogenous in cells
Test: VCAM antagonistic activity (VCAM-1/α4β7 binding assay), RPMI-8866 cells binding to VCAM-1
Conditions: RPMI-8866 cells (human B cells) binding to recombinant human VCAM-1; binding buffer containing 4 mM of MnCl2; room temperature, 30 minutes; read-out: VCAM-1/α 4 β 7 linking antagonization activity IC50
pIC50: −log10 of the molar value.
# label = Condition met if pIC50 >= 7 else Condition not met

Worked examples follow.
compound	class-assignment
CC(C)NCCN(c1ccc([N+](=O)[O-])c(C(=O)NC(Cc2ccc(NC(=O)c3snnc3-c3ccccc3)cc2)C(=O)O)c1)C(C)C (centres unmarked)	Condition met
O=C(NC(Cc1ccc(OCc2c(Cl)cccc2Cl)cc1)C(=O)O)c1cc(N2CCNCC2)ccc1[N+](=O)[O-] (centres unmarked)	Condition not met
CSc1ncc(Cl)c(C(=O)Nc2ccc(CC(NC(=O)c3cc(N(CCNC(C)C)C(C)C)ccc3[N+](=O)[O-])C(=O)O)cc2)n1 (centres unmarked)	Condition met
CCCN(C)c1ccc([N+](=O)[O-])c(C(=O)NC(Cc2ccc(OCc3c(Cl)cccc3Cl)cc2)C(=O)O)c1 (centres unmarked)	Condition not met

Now examine the next entry.
Data request: Kindly determine if pIC50 recorded for O=C(NC(Cc1ccc(OCc2c(Cl)cccc2Cl)cc1)C(=O)O)c1cc(N2CCC(O)CC2)ccc1[N+](=O)[O-] (centres unmarked) is above or exactly 7.
Data returned: Condition not met

###

Biological target: integrin α 4β7 (Homo sapiens, UniProt P13612+P26010)
Construct: lymphoma cell strain RPMI-8866 of human B cells, known to express integrin α 4β7; endogenous in cells
Sequence (P13612 34-1032): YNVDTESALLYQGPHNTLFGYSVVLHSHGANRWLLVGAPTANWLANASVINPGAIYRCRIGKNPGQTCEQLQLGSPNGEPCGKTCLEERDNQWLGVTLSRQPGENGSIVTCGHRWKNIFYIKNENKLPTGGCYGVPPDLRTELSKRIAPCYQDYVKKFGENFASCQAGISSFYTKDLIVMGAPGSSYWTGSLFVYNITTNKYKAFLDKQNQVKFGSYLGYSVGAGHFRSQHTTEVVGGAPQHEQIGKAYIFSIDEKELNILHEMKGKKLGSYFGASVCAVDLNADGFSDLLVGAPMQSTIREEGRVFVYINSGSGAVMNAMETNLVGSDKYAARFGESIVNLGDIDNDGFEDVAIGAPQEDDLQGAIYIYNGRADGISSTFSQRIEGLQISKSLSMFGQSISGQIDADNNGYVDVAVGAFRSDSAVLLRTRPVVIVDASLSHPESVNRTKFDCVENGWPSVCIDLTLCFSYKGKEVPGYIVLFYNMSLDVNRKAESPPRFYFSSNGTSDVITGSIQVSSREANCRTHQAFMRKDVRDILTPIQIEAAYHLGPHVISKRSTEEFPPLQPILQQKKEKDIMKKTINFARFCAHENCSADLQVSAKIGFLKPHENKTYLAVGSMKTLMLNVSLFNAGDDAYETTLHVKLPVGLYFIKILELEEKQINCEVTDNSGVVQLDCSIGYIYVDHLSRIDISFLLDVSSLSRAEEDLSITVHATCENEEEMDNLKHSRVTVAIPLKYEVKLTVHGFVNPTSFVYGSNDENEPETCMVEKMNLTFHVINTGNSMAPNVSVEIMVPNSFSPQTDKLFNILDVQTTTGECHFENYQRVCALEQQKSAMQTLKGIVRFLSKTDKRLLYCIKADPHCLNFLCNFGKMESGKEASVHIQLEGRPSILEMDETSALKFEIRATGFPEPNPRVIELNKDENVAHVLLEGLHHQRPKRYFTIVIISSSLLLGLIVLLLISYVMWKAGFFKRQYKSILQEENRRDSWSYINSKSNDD
Sequence (P26010 20-798): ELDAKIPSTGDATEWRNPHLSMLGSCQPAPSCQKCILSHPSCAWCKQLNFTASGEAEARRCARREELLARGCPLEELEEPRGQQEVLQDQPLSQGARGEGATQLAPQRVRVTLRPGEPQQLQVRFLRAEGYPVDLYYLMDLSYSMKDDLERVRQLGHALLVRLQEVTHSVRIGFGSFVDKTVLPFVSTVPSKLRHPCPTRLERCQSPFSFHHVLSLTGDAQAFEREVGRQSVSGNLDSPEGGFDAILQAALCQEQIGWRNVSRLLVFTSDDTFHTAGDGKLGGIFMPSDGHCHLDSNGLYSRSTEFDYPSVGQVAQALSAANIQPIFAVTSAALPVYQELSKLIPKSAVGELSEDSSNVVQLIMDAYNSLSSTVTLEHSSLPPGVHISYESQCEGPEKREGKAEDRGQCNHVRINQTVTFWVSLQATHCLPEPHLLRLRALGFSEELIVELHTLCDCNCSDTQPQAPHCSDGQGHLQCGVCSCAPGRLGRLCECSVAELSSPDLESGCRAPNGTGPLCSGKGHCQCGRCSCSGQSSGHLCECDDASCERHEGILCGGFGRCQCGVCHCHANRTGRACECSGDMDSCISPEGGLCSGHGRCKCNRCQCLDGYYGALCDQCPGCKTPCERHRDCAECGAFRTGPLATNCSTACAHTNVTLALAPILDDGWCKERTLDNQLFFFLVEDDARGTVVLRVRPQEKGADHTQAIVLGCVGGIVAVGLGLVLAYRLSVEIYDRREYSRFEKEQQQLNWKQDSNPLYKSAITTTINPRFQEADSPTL
Test: VCAM antagonistic activity (VCAM-1/α4β7 binding assay), RPMI-8866 cells binding to VCAM-1
Details: RPMI-8866 cells (human B cells) binding to recombinant human VCAM-1; binding buffer containing 4 mM of MnCl2; room temperature, 30 minutes; read-out: VCAM-1/α 4 β 7 linking antagonization activity IC50
Recorded pIC50 for the following compounds
pIC50 is a log-scale quantity: -log10 of the concentration expressed in molar.

compound	target-desc	pIC50
CCNC/C=C/CN(CC)c1ccc([N+](=O)[O-])c(C(=O)NC(Cc2ccc(OCc3c(Cl)cccc3Cl)cc2)C(=O)O)c1 (stereo not drawn)	integrin α 4β7 (Homo sapiens, UniProt P13612+P26010)	6.82
CC1CN(c2ccc([N+](=O)[O-])c(C(=O)NC(Cc3ccc(OCc4c(Cl)cccc4Cl)cc3)C(=O)O)c2)C(C)CN1 (stereo not drawn)	integrin α 4β7 (Homo sapiens, UniProt P13612+P26010)	6.85
O=C(NC(Cc1ccc(OCc2c(Cl)cccc2Cl)cc1)C(=O)O)c1cc(N2CCOCC2)ccc1[N+](=O)[O-] (stereo not drawn)	integrin α 4β7 (Homo sapiens, UniProt P13612+P26010)	6.85
CC(C)NCCCN(c1ccc([N+](=O)[O-])c(C(=O)NC(Cc2ccc(OCc3c(Cl)cccc3Cl)cc2)C(=O)O)c1)C(C)C (stereo not drawn)	integrin α 4β7 (Homo sapiens, UniProt P13612+P26010)	6.92
CCNCCN(CC)c1ccc([N+](=O)[O-])c(C(=O)NC(Cc2ccc(OCc3c(Cl)cccc3Cl)cc2)C(=O)O)c1 (stereo not drawn)	integrin α 4β7 (Homo sapiens, UniProt P13612+P26010)	6.80

Data request: What does the record list as pIC50 for O=C1CCN(c2ccc([N+](=O)[O-])c(C(=O)NC(Cc3ccc(OCc4c(Cl)cccc4Cl)cc3)C(=O)O)c2)CC1 (stereo not drawn) ?
Data returned: 6.80
